- target.or.system: UniProtKB Q8CA95
- Sequence (Q8CA95 446-763 limits assumed): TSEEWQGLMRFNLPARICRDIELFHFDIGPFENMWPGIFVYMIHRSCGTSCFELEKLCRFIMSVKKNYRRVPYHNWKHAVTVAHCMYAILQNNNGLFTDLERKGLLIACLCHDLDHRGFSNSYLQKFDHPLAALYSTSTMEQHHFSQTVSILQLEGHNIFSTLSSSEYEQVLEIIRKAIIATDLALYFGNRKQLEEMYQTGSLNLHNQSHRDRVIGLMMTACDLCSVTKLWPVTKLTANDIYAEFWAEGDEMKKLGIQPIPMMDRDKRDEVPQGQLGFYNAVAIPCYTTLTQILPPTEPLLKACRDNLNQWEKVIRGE
measured.parameter: IC50 (nM)

>>> test_value("COc1cc2nncc(-c3cnc(N4CCN(c5ccc(F)cc5F)CC4)c(C)c3)c2cc1OC [Cpd 16]")
11
>>> test_value("COc1cc2cncc(-c3cnc(N4CCC(C(C)(C)O)CC4)c(C)c3)c2cc1OC [Cpd 12]")
14.7
>>> test_value("COc1cc2nncc(-c3cnc(N4CCC(O)(c5ccccn5)CC4)c(Cl)c3)c2cc1OC [Cpd 8]")
3.07

P = COc1cc2nncc(-c3cnc(N4CCC(C)(O)CC4)c(C)c3)c2cc1OC [Cpd 7]
Q = COc1cc2nncc(-c3ccc(N4CCN(c5cccc(C(F)(F)F)c5)CC4)nc3)c2cc1OC [Cpd 15]
R = CCOC(=O)C1CCN(c2ccc(-c3cnnc4cc(OC)c(OC)cc34)cn2)CC1 [Cpd 30]
stdin: Ranking field: IC50; order: falling. Return value: ordered labels per request.
stdout: Q, R, P
(Q: 126 nM, R: 9.57 nM, P: 0.6 nM)

This collection of values is drawn from patent US20090062277A1.
